Target Entity: GST tagged truncated human mutant G2019S LRRK2 (Homo sapiens (Human), UniProt Q5S007, G2019S)
Sequence (Q5S007 970-2527 G2019S): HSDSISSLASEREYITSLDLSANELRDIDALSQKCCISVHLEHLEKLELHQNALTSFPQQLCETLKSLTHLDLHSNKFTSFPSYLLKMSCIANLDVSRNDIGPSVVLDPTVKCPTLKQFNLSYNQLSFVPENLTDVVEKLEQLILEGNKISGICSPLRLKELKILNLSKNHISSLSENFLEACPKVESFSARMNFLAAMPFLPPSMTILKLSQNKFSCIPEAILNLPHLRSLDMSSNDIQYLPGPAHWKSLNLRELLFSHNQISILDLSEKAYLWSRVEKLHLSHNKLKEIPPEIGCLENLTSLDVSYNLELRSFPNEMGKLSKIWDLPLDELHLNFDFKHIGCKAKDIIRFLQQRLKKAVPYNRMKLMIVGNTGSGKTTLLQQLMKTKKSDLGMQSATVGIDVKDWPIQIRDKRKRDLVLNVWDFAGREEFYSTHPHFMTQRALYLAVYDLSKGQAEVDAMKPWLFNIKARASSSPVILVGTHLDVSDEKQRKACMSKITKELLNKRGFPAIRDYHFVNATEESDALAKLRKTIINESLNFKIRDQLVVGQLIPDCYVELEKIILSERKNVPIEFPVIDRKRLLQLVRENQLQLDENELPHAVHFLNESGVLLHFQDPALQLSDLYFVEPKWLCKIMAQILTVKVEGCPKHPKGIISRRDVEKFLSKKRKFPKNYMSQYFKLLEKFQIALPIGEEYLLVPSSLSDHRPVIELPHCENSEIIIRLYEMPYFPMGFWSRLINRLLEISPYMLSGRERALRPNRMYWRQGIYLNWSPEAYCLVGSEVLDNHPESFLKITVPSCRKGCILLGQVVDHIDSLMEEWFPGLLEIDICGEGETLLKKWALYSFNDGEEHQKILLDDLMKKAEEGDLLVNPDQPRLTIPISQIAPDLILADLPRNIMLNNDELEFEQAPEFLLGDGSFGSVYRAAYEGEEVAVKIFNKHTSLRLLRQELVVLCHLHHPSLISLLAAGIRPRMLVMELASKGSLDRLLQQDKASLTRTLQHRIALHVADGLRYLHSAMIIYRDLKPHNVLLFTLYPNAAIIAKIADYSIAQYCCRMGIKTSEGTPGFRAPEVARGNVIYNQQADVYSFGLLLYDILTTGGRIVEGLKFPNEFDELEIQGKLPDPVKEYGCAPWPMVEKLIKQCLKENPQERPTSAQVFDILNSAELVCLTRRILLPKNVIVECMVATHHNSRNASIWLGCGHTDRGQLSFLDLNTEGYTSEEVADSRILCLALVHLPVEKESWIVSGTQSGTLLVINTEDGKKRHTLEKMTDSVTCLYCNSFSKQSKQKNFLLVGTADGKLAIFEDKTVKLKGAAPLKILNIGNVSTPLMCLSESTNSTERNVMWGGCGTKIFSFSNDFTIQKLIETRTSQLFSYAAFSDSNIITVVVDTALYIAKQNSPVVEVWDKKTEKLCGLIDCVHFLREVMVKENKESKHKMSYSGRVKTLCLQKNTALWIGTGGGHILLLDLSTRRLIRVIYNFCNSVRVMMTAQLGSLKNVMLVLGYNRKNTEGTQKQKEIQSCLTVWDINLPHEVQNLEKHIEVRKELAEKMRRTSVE
Measurement Description: LRRK2 Km ATP LanthaScreen Assay
Type: biochemical
Applied Conditions: 134 μM ATP (Km ATP), LRRKtide substrate, negative log of mean IC50 (molar)
Please go through the items and note down their LRRK2 pIC50.
One number for each entry.

> print(dat)
                                   compound  reported.result
1  COc1nn(CC2CC2(F)F)cc1NC(=O)c1csc(-c2cn[nH]c2)n1 (stereo not drawn)             7.74
2  COc1nn(CC(F)F)cc1NC(=O)c1csc(-c2cn[nH]c2)n1             7.58
3  Cn1cc(NC(=O)c2csc(-c3cn[nH]c3)n2)c(C(N)=O)n1             8.17
4  N#CC1CCC(Cn2cc(NC(=O)c3csc(-c4cn[nH]c4)n3)cn2)CC1 (stereo not drawn)             7.72
5  COc1nn(CC2CCC2)cc1NC(=O)c1csc(-c2cn[nH]c2)n1             7.80

State the recorded LRRK2 pIC50 for every item in the following list.
1. O=C(Nc1cn(CC2CC2(F)F)nc1C(F)F)c1csc(-c2cn[nH]c2)n1 (stereo not drawn)
2. CC(C#N)n1cc(NC(=O)c2csc(-c3cn[nH]c3)n2)c(C(F)F)n1 (stereo not drawn)

7.78
7.40

For each of the items listed, what is its LRRK2 pIC50?
1. O=C(Nc1cnn(CC2CCC(F)(F)CC2)c1)c1csc(-c2cn[nH]c2)n1
2. O=C(Nc1cnn(CC2CCC2)c1)c1cccc(-c2ccncc2)n1

[7.35, 5.04]

Field: LRRK2 pIC50. Fill in for each record below.
1. Cc1nc(C(=O)Nc2cnn(C3CCC3)c2)ccc1C#N
2. O=C(Nc1cnn(CC2CCC2)c1)c1cccc(-c2cnn3c2COCC3)n1
3. O=C(Nc1cn(CCF)nc1C(F)F)c1csc(-c2cn[nH]c2)n1

1. 5.07
2. 7.76
3. 7.75

Hello, the source for this data is patent US20240174679A1, in case you need it.
